- System: HT-29
- experimentalProtocol: NCI tumour cell line growth inhibition, 48 h
Calls of active or inactive are those of the source. No stated cut-off is given here; in the data, active = GI50 up to about 1.1 µM and inactive = higher.
Examples of compounds with documented GI50 follow.

{"compound": "CN(C)c1ccc(/C=C2\\N=C(c3ccccc3)N(c3ccc4c(c3)Sc3cc(N5C(=O)/C(=C/c6ccc(N(C)C)cc6)N=C5c5ccccc5)ccc3N4)C2=O)cc1", "observed": "54.7 µM (inactive)"}
{"compound": "CSc1ccc(NC(=O)C2c3[nH]c4ccccc4c3C3CCC(C(C)(C)C)CC3C2C(=O)O)cc1 (centres undefined)", "observed": "16.5 µM (inactive)"}
{"compound": "COc1ccc(C(SCC(N)C(=O)O)(c2ccc(OC)cc2)c2ccc(OC)cc2)cc1 (centres undefined)", "observed": "10.6 µM (inactive)"}
{"compound": "N#Cc1ccccc1NC(=O)/C(=N\\NC(=O)c1ccncc1)C(c1cnc2ccc([N+](=O)[O-])cc2n1)[N+](=O)[O-] (centres undefined)", "observed": "> 100 µM (inactive)"}
{"compound": "C=CC(Br)(CBr)CCC(Br)C(C)(C)Cl (centres undefined)", "observed": "1.53 µM (inactive)"}

What GI50 value was documented for this compound, CNC(=O)N1CN(c2ccccc2)C2(CCN(CCCC(=O)c3ccc(F)cc3)CC2)C1=O ?
5.19 µM (inactive)

What GI50 value was documented for this compound, Clc1ccc(C(Cc2cccc(Cl)c2)c2c(Cl)nc(N3CCNCC3)nc2Cl)cc1 (centres undefined) ?
> 100 µM (inactive)

What GI50 value was documented for this compound, CC(C)(C)OC(=O)N(CCCCNC(=O)C(F)(F)F)CCCNC(=O)C(F)(F)F ?
> 100 µM (inactive)

What GI50 value was documented for this compound, CC#CCCN(CC#N)Cc1ccccc1 ?
> 100 µM (inactive)

---

- Test system: SF-295
- experimentalProtocol: NCI tumour cell line growth inhibition, 48 h
The source made the active and inactive calls. No stated cut-off is given here; in the data, active = GI50 up to about 1.1 µM and inactive = higher.
valueKind: GI50

Some solved cases for reference:
{"molecule": "Cc1ccc(OP(=O)(Oc2ccc(C)cc2)N2C=Cc3ccccc3C2C#N)cc1 (configuration not stated)", "observed": "> 100 µM (inactive)"}
{"molecule": "Cc1nc(N)c(N2CCN(C#N)CC2)c(O)n1", "observed": "> 100 µM (inactive)"}
{"molecule": "CCCO/S(=N\\S(=O)(=O)c1ccccc1)c1ccccc1[N+](=O)[O-] (configuration not stated)", "observed": "> 100 µM (inactive)"}
{"molecule": "OC[C@H]1N[C@H](CO)[C@@H](O)[C@H]1O", "observed": "> 100 µM (inactive)"}

Hi! What's the reported GI50 for O=c1[nH]nc2ccccc2c1Cl on SF-295?
20.5 µM (inactive)

Hi! What's the reported GI50 for COc1ccccc1/C=C/c1cnccn1 on SF-295?
> 10 µM (inactive)

Hi! What's the reported GI50 for CNc1ccccc1-c1nc2ccccc2c(=O)o1 on SF-295?
41.2 µM (inactive)

Hi! What's the reported GI50 for C=CCCc1cc(OC)ccc1CN(C)C(C)(C)CO on SF-295?
> 100 µM (inactive)

Hi! What's the reported GI50 for Clc1nc(Cl)c(Cl)c(-c2ccccc2)n1 on SF-295?
3.93 µM (inactive)

Hi! What's the reported GI50 for O=[N+]([O-])c1ccc2c(c1)OCCOCCOc1ccc([N+](=O)[O-])cc1OCCOCCO2 on SF-295?
> 100 µM (inactive)

Hi! What's the reported GI50 for CN(c1ccccc1)c1cc2ccccc2nn1 on SF-295?
67.9 µM (inactive)

Hi! What's the reported GI50 for N#Cc1cccc(N2C(=O)c3c(c(-c4ccccc4)c(-c4ccc(Sc5ccc(-c6c(-c7ccccc7)c7c(c(-c8ccccc8)c6-c6ccccc6)C(=O)N(c6cccc(C#N)c6)C7=O)cc5)cc4)c(-c4ccccc4)c3-c3ccccc3)C2=O)c1 on SF-295?
> 100 µM (inactive)

Hi! What's the reported GI50 for Nc1ncc2c(n1)-c1ccccc1OC2N1CCOCC1 (configuration not stated) on SF-295?
> 100 µM (inactive)

Hi! What's the reported GI50 for CC[C@H](C)C(=O)O[C@H]1CCC=C2C=C[C@H](C)[C@H](CC[C@@H]3C[C@@H](O)CC(=O)O3)[C@H]21 on SF-295?
3.27 µM (inactive)

Hi! What's the reported GI50 for COC(=O)N1C2C(C[C@@]1(C)C(=O)OC)c1ccccc1N2S(=O)(=O)c1ccccc1 (some centres not stated) on SF-295?
> 100 µM (inactive)

Hi! What's the reported GI50 for COc1ccc2c3c(n(Cc4ccccc4)c(=O)c2c1)-c1cc(OC)c(OC)cc1C3C (configuration not stated) on SF-295?
11.6 µM (inactive)

Hi! What's the reported GI50 for Sc1nnc(COc2ccc(Cl)cc2)[nH]1 on SF-295?
> 100 µM (inactive)

Hi! What's the reported GI50 for CN1C2CCC1CC(C)(O)C2 (configuration not stated) on SF-295?
> 100 µM (inactive)

Hi! What's the reported GI50 for N#CC1C(=O)NC23CCCCC2C1c1ccccc1O3 (configuration not stated) on SF-295?
> 100 µM (inactive)

Hi! What's the reported GI50 for CC(=O)O[C@H]1C(=O)[C@@]2(C)[C@H]([C@H](OC(=O)c3ccccc3)[C@]3(O)C[C@H](OC(=O)[C@H](O)[C@@H](NC(=O)c4ccccc4)c4ccc5ccccc5c4)C(C)=C1C3(C)C)[C@]1(OC(C)=O)CO[C@@H]1C[C@@H]2O on SF-295?
0.304 µM (active)

---

- System: UACC-257
- experimentalProtocol: NCI tumour cell line growth inhibition, 48 h
The source made the active and inactive calls. Cut-off read from the data, not from the text of the source: active = GI50 up to about 1.1 µM and inactive = higher.
Answer with one of the outcomes true = active, false = inactive

Hello, I am checking results. What call was entered for O=[N+]([O-])c1cccc2nc3ccccc3c(NCCCN3CCOCC3)c12 ?
true

Hello, I am checking results. What call was entered for Nc1nc(N)c2ncn(-c3ccc(Cl)cc3)c2n1 ?
false

Hello, I am checking results. What call was entered for CCOC(=O)c1ccc(Nc2c3c(nc4ccccc24)CCCC3)cc1 ?
false

Hello, I am checking results. What call was entered for O=[N+]([O-])c1ccccc1CSc1nc(O)c2nc[nH]c2n1 ?
false

Hello, I am checking results. What call was entered for Cc1cc2c(cc1Cl)SC(NS(=O)(=O)c1ccc(Cl)cc1)=NS2(=O)=O ?
false

Hello, I am checking results. What call was entered for O=C(CNc1ccccc1[N+](=O)[O-])Nn1c(-c2ccccc2)nc2ccccc2c1=O ?
false

Hello, I am checking results. What call was entered for COc1ccc([C@@H]2CC(=O)N2)cc1 ?
false

---

- System: KM12
- experimentalProtocol: NCI tumour cell line growth inhibition, 48 h
Active and inactive are the calls of the source. No stated cut-off is given here; in the data, active = GI50 up to about 1.1 µM and inactive = higher.
Answer with one of the outcomes true (active), false (inactive)

Some solved cases for reference:
{"molecule": "CCOC(=O)/C(C(=O)Nc1cccc(C(F)(F)F)c1)=C(/N)N1CCCC1", "assignedCategory": "false"}
{"molecule": "O=C(N/N=C\\c1cccc2ccccc12)Nc1ccc([N+](=O)[O-])cc1", "assignedCategory": "false"}
{"molecule": "C1=CC2C=CC(C=C1)P2c1ccccc1 (stereo not given)", "assignedCategory": "false"}
{"molecule": "Cn1c(=O)[nH]n(-c2ccc3ccccc3c2)c1=O", "assignedCategory": "false"}
{"molecule": "COc1ccc2[nH]c3c(O)nncc3c2c1", "assignedCategory": "false"}
{"molecule": "CC1=C(C(=O)NCc2ccccc2)C(c2ccccc2C)C(C(=O)NCc2ccccc2)=C(C)N1", "assignedCategory": "false"}
{"molecule": "COc1ccc(/C=C2\\CCC(C)(CN(C)C)C2=O)cc1Br (stereo not given)", "assignedCategory": "false"}
{"molecule": "Brc1ccc(/N=c2/nc3ccccn3n3nc(-c4ccccc4)cc23)cc1", "assignedCategory": "false"}

Hello, I am checking results. What call was entered for N#Cc1cccc(N2C(=O)c3c(c(-c4ccccc4)c(-c4ccc(Sc5ccc(-c6c(-c7ccccc7)c7c(c(-c8ccccc8)c6-c6ccccc6)C(=O)N(c6cccc(C#N)c6)C7=O)cc5)cc4)c(-c4ccccc4)c3-c3ccccc3)C2=O)c1 ?
false

Hello, I am checking results. What call was entered for CN(C)CCCNC(=O)N/N=C/c1cccc([N+](=O)[O-])c1 ?
false

Hello, I am checking results. What call was entered for CN1CCC(CN2c3ccccc3Sc3ccccc32)CC1 ?
false

Hello, I am checking results. What call was entered for COc1cc2c(cc1OC)C(=O)/C(=C/c1cc(C)cc(C)c1)C2 ?
true

---

Examples of compounds with documented GI50 follow.
- Tested on: UACC-62
- experimentalProtocol: NCI tumour cell line growth inhibition, 48 h
Calls of active or inactive are those of the source. No stated cut-off is given here; in the data, active = GI50 up to about 1.1 µM and inactive = higher.

{"compound": "COc1ccccc1/C=C/c1cnccn1", "GI50": "> 10 µM (inactive)"}
{"compound": "Nc1cc2[nH]c(=O)c3cc(Cl)ccc3c2cc1Cl", "GI50": "16.7 µM (inactive)"}
{"compound": "Brc1ccc(/N=c2/nc3ccccn3n3nc(-c4ccccc4)cc23)cc1", "GI50": "15.1 µM (inactive)"}
{"compound": "O=C(CCCN1CCC2(CC1)C(=O)NC(=O)N2c1ccccc1)c1ccc(F)cc1", "GI50": "> 100 µM (inactive)"}
{"compound": "N[C@@H](CSCSC[C@H](N)C(=O)O)C(=O)O", "GI50": "> 225 µM (inactive)"}
{"compound": "COC(=O)[C@H](Cc1c[nH]c2ccccc12)NP(=O)(OCCC#N)OCC1OC(n2cc(C)c(=O)[nH]c2=O)CC1N=[N+]=[N-] (stereo partly specified)", "GI50": "> 100 µM (inactive)"}
{"compound": "O/N=C1/CCCC/C1=C\\c1ccc(Cl)c(Cl)c1", "GI50": "29.7 µM (inactive)"}
{"compound": "C=CC1(CC/C(=C\\[N+](=O)[O-])c2ccc(OC)c(OC)c2)OCC(C)(C)CO1", "GI50": "13.2 µM (inactive)"}

What GI50 value was documented for this compound, O=C(/C=C1\Nc2ccc([N+](=O)[O-])cc2N\C1=C/C(=O)c1ccc(F)cc1)c1ccc(F)cc1 ?
29.4 µM (inactive)

What GI50 value was documented for this compound, O=c1c2cc(I)ccc2nc(SCc2nnco2)n1Cc1ccccc1 ?
73.8 µM (inactive)

What GI50 value was documented for this compound, CC(O)(CNS(=O)(=O)c1ccccc1)c1ccccc1 (stereo unspecified) ?
> 100 µM (inactive)
